Measured CC50 at 4 days, listed per entry.
Assay: Adverse effect on host cell metabolism (MTS method) in RD cells
Assay type: cell-based
Settings: human, RD (rhabdomyosarcoma) cells, RD host cell metabolism reduced by 50%
Give the number; µM is assumed, so skip it.

Please review the following examples before continuing.
[[record]]
compound = "O=C(c1ccc(-c2cccc(-c3cc(-c4ccccc4)[nH]n3)c2)o1)N1CCOCC1 [21c]"
unit_text = "µM"
obs_value = 4.13

[[record]]
compound = "O=C(c1ccc(-c2cccc(-c3cc[nH]n3)c2)o1)N1CCCCC1 [10b]"
unit_text = "µM"
obs_value = 14.3

[[record]]
compound = "O=C(c1ccc(-c2cccc(-c3cc[nH]n3)c2)o1)N1CCCC1 [10a]"
unit_text = "µM"
obs_value = 119

[[record]]
compound = "COc1ccc(-c2cc(-c3cccc(-c4ccc(C(=O)N5CCOCC5)o4)c3)n[nH]2)cc1 [21e]"
unit_text = "µM"
obs_value = 2.09


Reported CC50 at 4 days for O=C(c1ccc(-c2cccc(-c3cc[nH]n3)c2)o1)N1CCCCCC1 [10c] : what is it?
81.1

Reported CC50 at 4 days for `COCCNC(=O)c1ccc(-c2cccc(-c3cc[nH]n3)c2)s1` : what is it?
22.4

Reported CC50 at 4 days for O=C(c1ccc(-c2cccc(-c3cc(-c4ccc(C(F)(F)F)cc4)[nH]n3)c2)s1)N1CCOCC1 [21i] : what is it?
76.4

Reported CC50 at 4 days for COc1ccc(NC(=O)c2ccc(-c3cccc(-c4cc[nH]n4)c3)o2)cc1 [12b] : what is it?
21

Reported CC50 at 4 days for O=C(c1ccc(-c2cccc(-c3cc(-c4ccc(C(F)(F)F)cc4)[nH]n3)c2)o1)N1CCOCC1 [21f] : what is it?
3.28

====

Test: Adverse effect on host cell metabolism (MTS method) in RD cells
Type: cell-based
Settings: human, RD (rhabdomyosarcoma) cells, RD host cell metabolism reduced by 50%
Measured CC50 at 4 days, listed per entry.
Give the number; µM is assumed, so skip it.

[[record]]
compound = "O=C(Nc1ccc(F)cc1)c1ccc(-c2cccc(-c3cc[nH]n3)c2)o1 [12a]"
readout_type = "CC50 at 4 days"
obs_value = 4.53


Reported CC50 at 4 days for COc1ccc(-c2cc(-c3cccc(-c4ccc(C(=O)N5CCOCC5)s4)c3)n[nH]2)cc1 [21h] : what is it?
41.9

Reported CC50 at 4 days for Cc1ccc(-c2cc(-c3cccc(-c4ccc(C(=O)N5CCOCC5)o4)c3)n[nH]2)cc1 [21d] : what is it?
3.25

====

Measured logD hydrocarbon water, listed per entry.
Assay: Lipophilicity by shake-flask method with UV spectrometry
Type: physicochemical
Settings: n-octane and water, 25 ± 1 °C, average of three independent experiments
Respond numerically, and do not add a unit to the figure.

[[record]]
molecule = "Cn1ccc(-c2cccc(-c3ccc(C(=O)N4CCOCC4)o3)c2)n1 [compound 23]"
readout_type = "logD hydrocarbon water"
obs_value = 2.75

[[record]]
molecule = "O=C(c1ccc(-c2cccc(-c3cc(-c4ccccc4)[nH]n3)c2)s1)N1CCOCC1 [21g]"
readout_type = "logD hydrocarbon water"
obs_value = 4.61

[[record]]
molecule = "COc1ccc(-c2cc(-c3cccc(-c4ccc(C(=O)N5CCOCC5)o4)c3)n[nH]2)cc1 [21e]"
readout_type = "logD hydrocarbon water"
obs_value = 3.96

[[record]]
molecule = "O=C(c1ccc(-c2cccc(-c3cc[nH]n3)c2)o1)N1CCOCC1 [21a]"
readout_type = "logD hydrocarbon water"
obs_value = 2.6

[[record]]
molecule = "COc1ccc(NC(=O)c2ccc(-c3cccc(-c4cc[nH]n4)c3)o2)cc1 [12b]"
readout_type = "logD hydrocarbon water"
obs_value = 4.15

[[record]]
molecule = "Cc1ccc(-c2cc(-c3cccc(-c4ccc(C(=O)N5CCOCC5)o4)c3)n[nH]2)cc1 [21d]"
readout_type = "logD hydrocarbon water"
obs_value = 4.3

[[record]]
molecule = "O=C(c1ccc(-c2cccc(-c3cc(-c4ccc(C(F)(F)F)cc4)[nH]n3)c2)s1)N1CCOCC1 [21i]"
readout_type = "logD hydrocarbon water"
obs_value = 5.04

[[record]]
molecule = "O=C(Nc1ccc(F)cc1)c1ccc(-c2cccc(-c3cc[nH]n3)c2)o1 [12a]"
readout_type = "logD hydrocarbon water"
obs_value = 4.18


Now examine the next entry.
Reported logD hydrocarbon water for O=C(c1ccc(-c2cccc(-c3cc(-c4ccc(C(F)(F)F)cc4)[nH]n3)c2)o1)N1CCOCC1 [21f] : what is it?
4.33
